# credit: PubChem BioAssay AID1963434

We begin with a simple list: items and their reported viability, T/C.
- Test system: 755483-174-R-J1-PDC complex spheroid growth, percent test/control
- experiment notes: Anticancer human tumor 755483-174-R-J1-PDC patient-derived rhabdomyosarcoma cell line growth inhibition [Asc]
- settings: second compound 0.316 µM; first compound 0.01 µM; active compounds read low
Answer format: numeric, % implied, no suffix.

# count of solved cases: 3
INSERT INTO measurements (molecule, assayed_target, measured_number) VALUES
  ('O=C(c1ccc(F)c(F)c1Nc1ccc(I)cc1F)N1CC(O)([C@@H]2CCCCN2)C1 + CNC(C)C(=O)NC1CN(S(=O)(=O)c2cccc(S(=O)(=O)N3CCC4CCC(C(=O)NC(c5ccccc5)c5ccccc5)N4C(=O)C(NC(=O)C(C)NC)C3)c2)CCC2CCC(C(=O)NC(c3ccccc3)c3ccccc3)N2C1=O', '755483-174-R-J1-PDC complex spheroid growth, percent test/control', 25.6),
  ('Cn1ncnc1[C@H]1c2n[nH]c(=O)c3cc(F)cc(c23)N[C@@H]1c1ccc(F)cc1 + Cc1c(S(C)(=O)=O)c(-c2cc(F)cc(N3CCN(c4ccc(NS(=O)(=O)c5ccc(NC(CCN6CCC(C(=O)OCCCP(=O)(O)O)CC6)CSc6ccccc6)c(S(=O)(=O)C(F)(F)F)c5)cc4)CC3)c2)c(-c2ccc(Cl)cc2)n1C(C)C', '755483-174-R-J1-PDC complex spheroid growth, percent test/control', 38.1),
  ('O=C(c1ccc(F)c(F)c1Nc1ccc(I)cc1F)N1CC(O)([C@@H]2CCCCN2)C1 + Cc1c(S(C)(=O)=O)c(-c2cc(F)cc(N3CCN(c4ccc(NS(=O)(=O)c5ccc(NC(CCN6CCC(C(=O)OCCCP(=O)(O)O)CC6)CSc6ccccc6)c(S(=O)(=O)C(F)(F)F)c5)cc4)CC3)c2)c(-c2ccc(Cl)cc2)n1C(C)C', '755483-174-R-J1-PDC complex spheroid growth, percent test/control', 42);

Read the next record carefully.
In plain terms, NC1CCC(NC2CC2c2ccccc2)CC1 (centres undefined) + CNC(C)C(=O)NC1CN(S(=O)(=O)c2cccc(S(=O)(=O)N3CCC4CCC(C(=O)NC(c5ccccc5)c5ccccc5)N4C(=O)C(NC(=O)C(C)NC)C3)c2)CCC2CCC(C(=O)NC(c3ccccc3)c3ccccc3)N2C1=O has a documented viability, T/C of 29.1

====

- Test system: 755483-174-R-J1-PDC complex spheroid growth, percent test/control
- experiment notes: Anticancer human tumor 755483-174-R-J1-PDC cell line growth inhibition [Asc];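 further: spheroids exposed to compounds for seven days before readout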
- settings: second compound 0.0316 µM; first compound 0.00316 µM; active compounds read low
recorded endpoint: viability, T/C

# count of solved cases: 2
INSERT INTO measurements (compound, result) VALUES
  ('CCN1CCN(Cc2ccc(Nc3ncc(F)c(-c4cc(F)c5nc(C)n(C(C)C)c5c4)n3)nc2)CC1 + CNC(C)C(=O)NC1CN(S(=O)(=O)c2cccc(S(=O)(=O)N3CCC4CCC(C(=O)NC(c5ccccc5)c5ccccc5)N4C(=O)C(NC(=O)C(C)NC)C3)c2)CCC2CCC(C(=O)NC(c3ccccc3)c3ccccc3)N2C1=O', '43.8%'),
  ('O=C(c1ccc(F)c(F)c1Nc1ccc(I)cc1F)N1CC(O)([C@@H]2CCCCN2)C1 + CNC(C)C(=O)NC1CN(S(=O)(=O)c2cccc(S(=O)(=O)N3CCC4CCC(C(=O)NC(c5ccccc5)c5ccccc5)N4C(=O)C(NC(=O)C(C)NC)C3)c2)CCC2CCC(C(=O)NC(c3ccccc3)c3ccccc3)N2C1=O', '56.5%');

Read the next record carefully.
In plain terms, Cn1ncnc1[C@H]1c2n[nH]c(=O)c3cc(F)cc(c23)N[C@@H]1c1ccc(F)cc1 + CNC(C)C(=O)NC1CN(S(=O)(=O)c2cccc(S(=O)(=O)N3CCC4CCC(C(=O)NC(c5ccccc5)c5ccccc5)N4C(=O)C(NC(=O)C(C)NC)C3)c2)CCC2CCC(C(=O)NC(c3ccccc3)c3ccccc3)N2C1=O has a documented viability, T/C of 33.4%

====

- Tested on: 755483-174-R-J1-PDC complex spheroid growth, percent test/control
- experiment notes: Anticancer human tumor 755483-174-R-J1-PDC cell line growth inhibition [Asc];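 further: spheroids exposed to compounds for seven days before readout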
- settings: second compound 1 µM; first compound 0.316 µM; active compounds read low
recorded endpoint: viability, T/C (%)
Answer format: numeric, % implied, no suffix.

INSERT INTO results (compound, recorded_endpoint, unit_string, measured_number) VALUES
  ('O=C(c1ccc(F)c(F)c1Nc1ccc(I)cc1F)N1CC(O)([C@@H]2CCCCN2)C1 + Cc1c(S(C)(=O)=O)c(-c2cc(F)cc(N3CCN(c4ccc(NS(=O)(=O)c5ccc(NC(CCN6CCC(C(=O)OCCCP(=O)(O)O)CC6)CSc6ccccc6)c(S(=O)(=O)C(F)(F)F)c5)cc4)CC3)c2)c(-c2ccc(Cl)cc2)n1C(C)C', 'viability, T/C', '%', 24.6),
  ('O=C(c1cc(Cc2n[nH]c(=O)c3ccccc23)ccc1F)N1CCN(C(=O)C2CC2)CC1 + CNC(C)C(=O)NC1CN(S(=O)(=O)c2cccc(S(=O)(=O)N3CCC4CCC(C(=O)NC(c5ccccc5)c5ccccc5)N4C(=O)C(NC(=O)C(C)NC)C3)c2)CCC2CCC(C(=O)NC(c3ccccc3)c3ccccc3)N2C1=O', 'viability, T/C', '%', 6.88);

Response field viability, T/C (755483-174-R-J1-PDC complex spheroid growth, percent test/control) for item COc1c(OCCCN2CCOCC2)ccc2c3n(c(=NC(=O)c4cnc(N)nc4)nc12)CCN3 + Cc1c(S(C)(=O)=O)c(-c2cc(F)cc(N3CCN(c4ccc(NS(=O)(=O)c5ccc(NC(CCN6CCC(C(=O)OCCCP(=O)(O)O)CC6)CSc6ccccc6)c(S(=O)(=O)C(F)(F)F)c5)cc4)CC3)c2)c(-c2ccc(Cl)cc2)n1C(C)C : 5.22

Response field viability, T/C (755483-174-R-J1-PDC complex spheroid growth, percent test/control) for item C=CC(=O)N1CCN(c2nc(=O)n(-c3c(C)ccnc3C(C)C)c3nc(-c4c(O)cccc4F)c(F)cc23)C(C)C1 (centres undefined) + CNC(C)C(=O)NC1CN(S(=O)(=O)c2cccc(S(=O)(=O)N3CCC4CCC(C(=O)NC(c5ccccc5)c5ccccc5)N4C(=O)C(NC(=O)C(C)NC)C3)c2)CCC2CCC(C(=O)NC(c3ccccc3)c3ccccc3)N2C1=O : 33.6

====

We begin with a simple list: items and their reported viability, T/C.
- Tested on: 755483-174-R-J1-PDC complex spheroid growth, percent test/control
- experiment notes: Anticancer human tumor 755483-174-R-J1-PDC cell line growth inhibition [Asc];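 further: spheroids exposed to compounds for seven days before readout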
- settings: second compound 0.316 µM; first compound 0.1 µM; active compounds read low
- Text: Multicellular complex tumor spheroid response to apoptosis pathway targeting inhibitors Alrizomadlin, Pelcitoclax, and Dasminapant in combination with a variety of drugs and investigational agents in selected tumor cell lines […] Compounds. […] If the clinical Cmax for an agent had not been determined, the highest concentration tested was 10 microM. […]
Answer format: numeric, % implied, no suffix.

INSERT INTO results (compound, recorded_endpoint, measured_number) VALUES
  ('CCN1CCN(Cc2ccc(Nc3ncc(F)c(-c4cc(F)c5nc(C)n(C(C)C)c5c4)n3)nc2)CC1 + CNC(C)C(=O)NC1CN(S(=O)(=O)c2cccc(S(=O)(=O)N3CCC4CCC(C(=O)NC(c5ccccc5)c5ccccc5)N4C(=O)C(NC(=O)C(C)NC)C3)c2)CCC2CCC(C(=O)NC(c3ccccc3)c3ccccc3)N2C1=O', 'viability, T/C', 31);

In plain terms, NC1CCC(NC2CC2c2ccccc2)CC1 (stereo not drawn) + CNC(C)C(=O)NC1CN(S(=O)(=O)c2cccc(S(=O)(=O)N3CCC4CCC(C(=O)NC(c5ccccc5)c5ccccc5)N4C(=O)C(NC(=O)C(C)NC)C3)c2)CCC2CCC(C(=O)NC(c3ccccc3)c3ccccc3)N2C1=O has a documented viability, T/C of 29.5

In plain terms, CNC(C)C(=O)NC1CN(S(=O)(=O)c2cccc(S(=O)(=O)N3CCC4CCC(C(=O)NC(c5ccccc5)c5ccccc5)N4C(=O)C(NC(=O)C(C)NC)C3)c2)CCC2CCC(C(=O)NC(c3ccccc3)c3ccccc3)N2C1=O (stereo not drawn) + Cc1c(S(C)(=O)=O)c(-c2cc(F)cc(N3CCN(c4ccc(NS(=O)(=O)c5ccc(NC(CCN6CCC(C(=O)OCCCP(=O)(O)O)CC6)CSc6ccccc6)c(S(=O)(=O)C(F)(F)F)c5)cc4)CC3)c2)c(-c2ccc(Cl)cc2)n1C(C)C has a documented viability, T/C of 24.4

====

- Test system: 755483-174-R-J1-PDC complex spheroid growth, percent test/control
- experiment notes: Anticancer human tumor 755483-174-R-J1-PDC cell line growth inhibition [Asc]; active = viability on the fitted dose curve at most 10% of control; inactive = the rest;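 further: spheroids exposed to compounds for seven days before readout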
- settings: second compound 0.0316 µM; first compound 10 µM
- Excerpt: Multicellular complex tumor spheroid response to apoptosis pathway targeting inhibitors Alrizomadlin, Pelcitoclax, and Dasminapant in combination with a variety of drugs and investigational agents in selected tumor cell lines […] Compounds. […] If the clinical Cmax for an agent had not been determined, the highest concentration tested was 10 microM. […]
Assign a class; possible classes are t for active, f for inactive

Worked examples follow.
INSERT INTO results (molecule, assigned_label) VALUES
  ('C#Cc1c(F)ccc2cc(O)cc(-c3ncc4c(N5CC6CCC(C5)N6)nc(OCC56CCCN5CC(F)C6)nc4c3F)c12 (centres undefined) + CNC(C)C(=O)NC1CN(S(=O)(=O)c2cccc(S(=O)(=O)N3CCC4CCC(C(=O)NC(c5ccccc5)c5ccccc5)N4C(=O)C(NC(=O)C(C)NC)C3)c2)CCC2CCC(C(=O)NC(c3ccccc3)c3ccccc3)N2C1=O', 't'),
  ('C=C(F)C(=O)N1CCN(c2nc(OCC3CCCN3C)nc3c2CCN(c2cccc4cccc(Cl)c24)C3)CC1CC#N (centres undefined) + CNC(C)C(=O)NC1CN(S(=O)(=O)c2cccc(S(=O)(=O)N3CCC4CCC(C(=O)NC(c5ccccc5)c5ccccc5)N4C(=O)C(NC(=O)C(C)NC)C3)c2)CCC2CCC(C(=O)NC(c3ccccc3)c3ccccc3)N2C1=O', 't'),
  ('C=CC(=O)N1CCN(c2nc(=O)n(-c3c(C)ccnc3C(C)C)c3nc(-c4c(O)cccc4F)c(F)cc23)C(C)C1 (centres undefined) + CNC(C)C(=O)NC1CN(S(=O)(=O)c2cccc(S(=O)(=O)N3CCC4CCC(C(=O)NC(c5ccccc5)c5ccccc5)N4C(=O)C(NC(=O)C(C)NC)C3)c2)CCC2CCC(C(=O)NC(c3ccccc3)c3ccccc3)N2C1=O', 'f');

How was O=C(c1cc(Cc2n[nH]c(=O)c3ccccc23)ccc1F)N1CCN(C(=O)C2CC2)CC1 + CNC(C)C(=O)NC1CN(S(=O)(=O)c2cccc(S(=O)(=O)N3CCC4CCC(C(=O)NC(c5ccccc5)c5ccccc5)N4C(=O)C(NC(=O)C(C)NC)C3)c2)CCC2CCC(C(=O)NC(c3ccccc3)c3ccccc3)N2C1=O classified in this test?
f
